Consider the following molecules; for each one, report its TGI.
System: COLO 205 colon
method_description: NCI tumour cell line growth inhibition, 48 h
Value expressed in µM; do not type the unit.

Please look up its TGI: O=C(Nc1ccc(F)cc1F)c1cc(Cl)ccc1O
22.5

Continue with CN1CN(c2ccccc2)C2(CCN(CCCCCCF)CC2)C1=O
47.3

Another molecule to check: CCN1CCN(c2cc(C)nc(N(CCCNc3ccnc4cc(Cl)ccc34)Cc3ccc4c(c3)OCO4)n2)CC1
3.39

And what about the molecule COC(=O)NNC(c1ccc(Cl)cc1)c1ccc(Cl)cc1 ?
38

Again, but for Cc1ccc(-n2cc(-c3ccc(Cl)cc3)c3c(NN)ncnc32)cc1
11.2

Entry O=C(Nc1ccc(-n2ccc3c(NC(=O)c4ccccc4)ncnc32)cc1)c1cccc(C(F)(F)F)c1 please
20.9

Next entry: CCN(Cc1cc(F)ccc1F)c1ccc(CO)c(Cl)c1
6.72

And OCC(CCc1ccccc1I)C1=CCC2(CC1)OCCO2 (stereo unspecified) ?
34.6

Next molecule up: O=C(N/C(=C\c1ccc(Br)cc1)c1nc2ccccc2[nH]1)c1ccccc1
41.1

Now give it for O=C(/C=C/c1ccc(C(F)(F)F)cc1)Nc1ccc(C=C2c3ccccc3C(=O)c3ccccc32)cc1 too.
38.4

Follow-up item: Cc1ncc(C(=O)Nc2ccc(CN3CCN(C)CC3)c(C(F)(F)F)c2)cc1C#Cc1ccc(N)nc1
4.55
